- Tested on: Staphylococcus aureus
- methodSummary: Antibacterial activity against Staphylococcus aureus assessed as zone of inhibition at 100 ug/ml
- Format: functional
- conditionParameters: read-out: IZ
quantity: zone of inhibition at 100 µg/mL (mm)
Your answer is read as mm, so omit the unit and give the number.

INPUT: Given the entry `Cc1ccc2c(c1)oc(=O)c1c(-c3cn(-c4ccccc4)nc3-c3ccccc3)cc(-c3c(O)c(Cl)cc(I)c3O)nc12` , what zone of inhibition at 100 µg/mL was observed with Staphylococcus aureus?
OUTPUT: 19

INPUT: Given the entry `Cc1ccc2c(c1)oc(=O)c1c(-c3cn(-c4ccccc4)nc3-c3ccccc3)cc(-c3c(O)c(I)c(C)c(Cl)c3Cl)nc12` , what zone of inhibition at 100 µg/mL was observed with Staphylococcus aureus?
OUTPUT: 15

INPUT: Given the entry `Cc1ccc2c(c1)oc(=O)c1c(-c3cn(-c4ccccc4)nc3-c3ccccc3)cc(-c3c(O)c(C)cc(I)c3O)nc12` , what zone of inhibition at 100 µg/mL was observed with Staphylococcus aureus?
OUTPUT: 15

INPUT: Given the entry `Cc1ccc2c(c1)oc(=O)c1c(-c3cn(-c4ccccc4)nc3-c3ccccc3)cc(-c3c(O)c(Cl)cc(Br)c3O)nc12` , what zone of inhibition at 100 µg/mL was observed with Staphylococcus aureus?
OUTPUT: 18

INPUT: Given the entry `Cc1ccc2c(c1)oc(=O)c1c(-c3cn(-c4ccccc4)nc3-c3ccccc3)cc(-c3c(O)c(Br)cc(Cl)c3Cl)nc12` , what zone of inhibition at 100 µg/mL was observed with Staphylococcus aureus?
OUTPUT: 21

* * *

- assayedSystem: Dopamine receptors; D2 & D4 (Homo sapiens, UniProt P14416+P21917)
- methodSummary: Binding affinity to human D2/D4 receptor assessed as inhibition constant
- Format: protein assay
Ki overview
Your answer is read as nM, so omit the unit and give the number.

Observe how each entry below is paired with its result.
INPUT: Given the entry `COc1ccc2c3c(c(=O)oc2c1)CN(Cc1ccccc1Cl)CC3` , what Ki was observed with Dopamine receptors; D2 & D4 (Homo sapiens, UniProt P14416+P21917)?
OUTPUT: 171

INPUT: Given the entry `Cc1ccc2c3c(c(=O)oc2c1)CN(Cc1ccc(F)cc1)CC3` , what Ki was observed with Dopamine receptors; D2 & D4 (Homo sapiens, UniProt P14416+P21917)?
OUTPUT: 773

Shifting focus to the molecule that follows.
INPUT: Given the entry `COc1ccc2c3c(c(=O)oc2c1)CN(Cc1ccc(F)cc1)CC3` , what Ki was observed with Dopamine receptors; D2 & D4 (Homo sapiens, UniProt P14416+P21917)?
OUTPUT: 1350
